Cited source for all entries: the supplement of paper PMC10567573

B1: STX5 (parent)
chain: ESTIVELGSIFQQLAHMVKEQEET

variants of: B1; assay: protein stability index of a GFP-peptide fusion (GPS, HEK-293T) (PSI 1-6); higher = more stable; conditions: c terminus: a fixed tail appended;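 further: lentivirally expressed fusions sorted by FACS into six bins by GFP to DsRed ratio, PSI derived from sequencing read proportions per bin multiplied by bin number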
measurement-label: protein stability index
Answer as a number with no unit attached.

protein stability index in this record for M17N : 4.16

protein stability index in this record for L7R : 5.13

protein stability index in this record for H16K : 2.27

protein stability index in this record for H16P : 4.65

protein stability index in this record for S2Q : 1.97

protein stability index in this record for L7Y : 3.97

protein stability index in this record for S2P : 1.7

protein stability index in this record for H16I : 1.88

protein stability index in this record for I10M : 2.6

protein stability index in this record for I10E : 5.46

protein stability index in this record for G8T : 2.69

protein stability index in this record for H16E : 1.96

protein stability index in this record for A15N : 3.67

protein stability index in this record for I10F : 2.26

protein stability index in this record for E22N : 1.98

protein stability index in this record for T24F : 1.6

protein stability index in this record for T24K : 1.83

protein stability index in this record for T24C : 1.62

protein stability index in this record for S9T : 2.11

protein stability index in this record for T24I : 1.78

protein stability index in this record for L14D : 5.05

protein stability index in this record for I10C : 3.72

protein stability index in this record for V5T : 1.99

protein stability index in this record for F11R : 4.92

protein stability index in this record for H16F : 2.02

protein stability index in this record for S9D : 2.55

protein stability index in this record for Q12M : 1.98

protein stability index in this record for Q21L : 2.67

protein stability index in this record for A15Q : 2.81

protein stability index in this record for S2Y : 1.7

protein stability index in this record for F11L : 2.8

protein stability index in this record for E22P : 1.69

protein stability index in this record for L14S : 5.26

protein stability index in this record for T3Y : 2.05

protein stability index in this record for L14K : 5.2

protein stability index in this record for S2F : 2.93

protein stability index in this record for I4D : 2.78

protein stability index in this record for G8H : 2.48

protein stability index in this record for E6H : 2.33

protein stability index in this record for Q21S : 1.81

protein stability index in this record for T3E : 1.43

protein stability index in this record for E20H : 1.62

protein stability index in this record for E23R : 1.77

protein stability index in this record for E20Q : 1.12

protein stability index in this record for S2R : 1.25

protein stability index in this record for S9Q : 2.1

protein stability index in this record for M17T : 4.18

protein stability index in this record for E6R : 4.41

protein stability index in this record for E22F : 2.88

protein stability index in this record for M17I : 2.3

protein stability index in this record for L14P : 4.93

protein stability index in this record for G8R : 1.84

protein stability index in this record for E6V : 1.62

protein stability index in this record for Q13T : 3.28

protein stability index in this record for L7Q : 4.89

protein stability index in this record for G8M : 1.35

protein stability index in this record for E1D : 2.77

protein stability index in this record for S9L : 1.71

protein stability index in this record for M17S : 3.4

protein stability index in this record for Q21C : 1.91

protein stability index in this record for E6L : 2.34

protein stability index in this record for E23P : 2.06

protein stability index in this record for Q13M : 1.98

protein stability index in this record for G8Y : 3.89

protein stability index in this record for Q12D : 3.34

protein stability index in this record for V18R : 3.65

protein stability index in this record for V5I : 2.55
